# assay summary: Gelling ability of basic amino acid derivatives (test tube tilting, visual appearance)
# Assay type: physicochemical
# Design: key: GT: transparent gel; GTL: translucent gel; GO: opaque gel
# condition summary: 0.1M aqueous NaCl solution; heated to 100° C., stood at 25° C. for 2 hr
# Protocol: The gelling ability of various basic amino acid derivatives prepared in Production Examples 1-4, 7, 9 and 10 was confirmed. Test tube equipped with a cover was filled with water, saline, phosphate buffered saline (hereinafter indicated as PBS), and aqueous NaCl solution or aqueous KCl solution, and a basic amino acid derivative was added at various concentrations. The mixture was heated to 100° C. to achieve homogeneous dissolution, and stood at 25° C. for 2 hr. […]
observed property: gel appearance

* CCCCCCCCCCCC(=O)NCCCC[C@H](NC(=O)CC(CCCCCCCCCC)C(=O)[O-])C(=O)OCC.[K+] (stereo partly shown) [Production Example 2] | GTL
* CCCCCCCCCCCC(=O)NCCCC[C@H](NC(=O)CC(CCCCCCCCCC)C(=O)[O-])C(=O)OCC.[Na+] (stereo partly shown) [Production Example 1] | GTL
* CCCCCCCCCCCC(=O)NCCCC[C@H](NC(=O)CCCCCCCCC(=O)[O-])C(=O)O.[Na+] [Production Example 9] | GT
* CCCCCCCCCCCC(=O)NCCCC[C@H](NC(=O)CC(CCCCCCCCCC)C(=O)[O-])C(=O)O.[K+] (stereo partly shown) [Production Example 4] | GTL
* CCCCCCCCCCCC(=O)NCCCC[C@H](NC(=O)CCCCCCCCC(=O)[O-])C(=O)O.[K+] [Production Example 10] | GT
* CCCCCCCCCCCC(=O)NCCCC[C@H](NC(=O)CCCCCCC(=O)[O-])C(=O)O.[Na+] [Production Example 7] | GTL
* CCCCCCCCCCCC(=O)NCCCC[C@H](NC(=O)CC(CCCCCCCCCC)C(=O)[O-])C(=O)O.[Na+] (stereo partly shown) [Production Example 3] | GTL

---

# assay summary: Gelling ability of basic amino acid derivatives (test tube tilting, visual appearance)
# Format: physicochemical
# condition summary: water; heated to 100° C., stood at 25° C. for 2 hr
observed property: minimum gelling concentration

- CCCCCCCCCCCC(=O)NCCCC[C@H](NC(=O)CCCCCCCCC(=O)[O-])C(=O)O.[K+]: 30 g/L
- CCCCCCCCCCCC(=O)NCCCC[C@H](NC(=O)CCCCCCCCC(=O)[O-])C(=O)O.[Na+]: 30 g/L
- CCCCCCCCCCCC(=O)NCCCC[C@H](NC(=O)CC(CCCCCCCCCC)C(=O)[O-])C(=O)O.[K+] (stereo partly drawn): 60 g/L
- CCCCCCCCCCCC(=O)NCCCC[C@H](NC(=O)CC(CCCCCCCCCC)C(=O)[O-])C(=O)OCC.[K+] (stereo partly drawn): 20 g/L
- CCCCCCCCCCCC(=O)NCCCC[C@H](NC(=O)CC(CCCCCCCCCC)C(=O)[O-])C(=O)O.[Na+] (stereo partly drawn): 50 g/L
- CCCCCCCCCCCC(=O)NCCCC[C@H](NC(=O)CC(CCCCCCCCCC)C(=O)[O-])C(=O)OCC.[Na+] (stereo partly drawn): 25 g/L

---

Listed here are compounds together with their documented minimum gelling concentration.
# assay summary: Gelling ability of basic amino acid derivatives (test tube tilting, visual appearance)
# Type: physicochemical
# condition summary: PBS; heated to 100° C., stood at 25° C. for 2 hr
observed property: minimum gelling concentration (g/L)

• CCCCCCCCCCCC(=O)NCCCC[C@H](NC(=O)CCCCCCCCC(=O)[O-])C(=O)O.[K+] [Production Example 10] = 4
• CCCCCCCCCCCC(=O)NCCCC[C@H](NC(=O)CC(CCCCCCCCCC)C(=O)[O-])C(=O)O.[K+] (some centres unmarked) [Production Example 4] = 60
• CCCCCCCCCCCC(=O)NCCCC[C@H](NC(=O)CCCCCCCCC(=O)[O-])C(=O)O.[Na+] [Production Example 9] = 4
• CCCCCCCCCCCC(=O)NCCCC[C@H](NC(=O)CCCCCCC(=O)[O-])C(=O)O.[Na+] [Production Example 7] = 30
• CCCCCCCCCCCC(=O)NCCCC[C@H](NC(=O)CC(CCCCCCCCCC)C(=O)[O-])C(=O)O.[Na+] (some centres unmarked) [Production Example 3] = 60

---

# assay summary: Gelling ability of basic amino acid derivatives (test tube tilting, visual appearance)
# Assay type: physicochemical
# condition summary: 0.1M aqueous KCl solution; heated to 100° C., stood at 25° C. for 2 hr
observed property: minimum gelling concentration

• CCCCCCCCCCCC(=O)NCCCC[C@H](NC(=O)CC(CCCCCCCCCC)C(=O)[O-])C(=O)O.[K+] (stereo partly shown) = 40 g/L
• CCCCCCCCCCCC(=O)NCCCC[C@H](NC(=O)CCCCCCCCC(=O)[O-])C(=O)O.[Na+] = 4 g/L
• CCCCCCCCCCCC(=O)NCCCC[C@H](NC(=O)CC(CCCCCCCCCC)C(=O)[O-])C(=O)OCC.[Na+] (stereo partly shown) = 15 g/L
• CCCCCCCCCCCC(=O)NCCCC[C@H](NC(=O)CC(CCCCCCCCCC)C(=O)[O-])C(=O)O.[Na+] (stereo partly shown) = 20 g/L

---

# assay summary: Gelling ability of basic amino acid derivatives (test tube tilting, visual appearance)
# Assay type: physicochemical
# condition summary: 0.1M aqueous NaCl solution; heated to 100° C., stood at 25° C. for 2 hr
observed property: minimum gelling concentration (g/L)

* CCCCCCCCCCCC(=O)NCCCC[C@H](NC(=O)CCCCCCC(=O)[O-])C(=O)O.[Na+] | 30
* CCCCCCCCCCCC(=O)NCCCC[C@H](NC(=O)CCCCCCCCC(=O)[O-])C(=O)O.[K+] | 10
* CCCCCCCCCCCC(=O)NCCCC[C@H](NC(=O)CC(CCCCCCCCCC)C(=O)[O-])C(=O)O.[Na+] (stereo partly drawn) | 20

---

# assay summary: Gelling ability of basic amino acid derivatives (test tube tilting, visual appearance)
# Format: physicochemical
# Parameters: key: GT: transparent gel; GTL: translucent gel; GO: opaque gel
# condition summary: 0.1M aqueous KCl solution; heated to 100° C., stood at 25° C. for 2 hr
observed property: gel appearance

- CCCCCCCCCCCC(=O)NCCCC[C@H](NC(=O)CC(CCCCCCCCCC)C(=O)[O-])C(=O)O.[K+] (stereo partly shown): GTL
- CCCCCCCCCCCC(=O)NCCCC[C@H](NC(=O)CC(CCCCCCCCCC)C(=O)[O-])C(=O)O.[Na+] (stereo partly shown): GTL
- CCCCCCCCCCCC(=O)NCCCC[C@H](NC(=O)CC(CCCCCCCCCC)C(=O)[O-])C(=O)OCC.[Na+] (stereo partly shown): GTL
- CCCCCCCCCCCC(=O)NCCCC[C@H](NC(=O)CCCCCCC(=O)[O-])C(=O)O.[Na+]: GT
- CCCCCCCCCCCC(=O)NCCCC[C@H](NC(=O)CCCCCCCCC(=O)[O-])C(=O)O.[K+]: GT
- CCCCCCCCCCCC(=O)NCCCC[C@H](NC(=O)CC(CCCCCCCCCC)C(=O)[O-])C(=O)OCC.[K+] (stereo partly shown): GTL
- CCCCCCCCCCCC(=O)NCCCC[C@H](NC(=O)CCCCCCCCC(=O)[O-])C(=O)O.[Na+]: GT

---

# assay summary: Gelling ability of basic amino acid derivatives (test tube tilting, visual appearance)
# Format: physicochemical
# Set-up: key: GT: transparent gel; GTL: translucent gel; GO: opaque gel
# condition summary: water; heated to 100° C., stood at 25° C. for 2 hr
observed property: gel appearance

• CCCCCCCCCCCC(=O)NCCCC[C@H](NC(=O)CCCCCCCCC(=O)[O-])C(=O)O.[K+] [Production Example 10] = GTL
• CCCCCCCCCCCC(=O)NCCCC[C@H](NC(=O)CC(CCCCCCCCCC)C(=O)[O-])C(=O)OCC.[Na+] (stereo partly drawn) [Production Example 1] = GTL
• CCCCCCCCCCCC(=O)NCCCC[C@H](NC(=O)CCCCCCCCC(=O)[O-])C(=O)O.[Na+] [Production Example 9] = GTL
• CCCCCCCCCCCC(=O)NCCCC[C@H](NC(=O)CC(CCCCCCCCCC)C(=O)[O-])C(=O)O.[Na+] (stereo partly drawn) [Production Example 3] = GTL
• CCCCCCCCCCCC(=O)NCCCC[C@H](NC(=O)CC(CCCCCCCCCC)C(=O)[O-])C(=O)OCC.[K+] (stereo partly drawn) [Production Example 2] = GTL
• CCCCCCCCCCCC(=O)NCCCC[C@H](NC(=O)CC(CCCCCCCCCC)C(=O)[O-])C(=O)O.[K+] (stereo partly drawn) [Production Example 4] = GTL
